The reported measurements were obtained from ChEMBL document CHEMBL1201862.

Biological target: Calpain-2 catalytic subunit (Sus scrofa, UniProt P43367)
Sequence (P43367 whole entry): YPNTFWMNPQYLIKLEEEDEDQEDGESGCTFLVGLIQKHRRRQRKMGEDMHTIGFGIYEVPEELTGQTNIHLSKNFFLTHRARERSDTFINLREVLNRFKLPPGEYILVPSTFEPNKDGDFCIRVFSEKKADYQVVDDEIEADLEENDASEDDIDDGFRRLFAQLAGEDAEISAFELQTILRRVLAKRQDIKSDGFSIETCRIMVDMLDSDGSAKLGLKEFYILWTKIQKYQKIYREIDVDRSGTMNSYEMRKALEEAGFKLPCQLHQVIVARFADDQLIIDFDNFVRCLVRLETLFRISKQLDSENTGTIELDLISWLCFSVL
Test: m-calpain protease blockers, concentration series – biochemical, fluorogenic peptide substrate, dose response (AID 1420)
Assay type: functional
parameter: IC50

> print(dat)
                           smiles.record         readout.value
1  COc1ccccc1-n1nnnc1SCc1cc2c(cc1Br)OCO2  1.36 µM (not active)

Prompt line: Provide measured IC50 value, entry: "Cc1ccc(S(=O)(=O)N(C)c2ccc(C)c([N+](=O)[O-])c2)cc1"
Response line: 18.8 µM (not active)

Prompt line: Provide measured IC50 value, entry: "O=C(NCc1ccco1)c1cccc(Nc2nc3ccc(Br)cc3[nH]2)c1"
Response line: 11.9 µM (not active)

Prompt line: Provide measured IC50 value, entry: "CC(C)n1nc(C(=O)OCC(=O)c2c[nH]c3ccccc23)c2ccccc2c1=O"
Response line: 0.91 µM (not active)

Prompt line: Provide measured IC50 value, entry: "O=C(CCCCCN1C(=O)c2ccccc2C1=O)Nc1ccc(S(=O)(=O)N2CCCCC2)cc1"
Response line: 2.38 µM (not active)

* * *

# IC50 values compiled below
Target: Genome polyprotein (dengue virus type 2)
Sequence (P29990 2492-3391 limits assumed): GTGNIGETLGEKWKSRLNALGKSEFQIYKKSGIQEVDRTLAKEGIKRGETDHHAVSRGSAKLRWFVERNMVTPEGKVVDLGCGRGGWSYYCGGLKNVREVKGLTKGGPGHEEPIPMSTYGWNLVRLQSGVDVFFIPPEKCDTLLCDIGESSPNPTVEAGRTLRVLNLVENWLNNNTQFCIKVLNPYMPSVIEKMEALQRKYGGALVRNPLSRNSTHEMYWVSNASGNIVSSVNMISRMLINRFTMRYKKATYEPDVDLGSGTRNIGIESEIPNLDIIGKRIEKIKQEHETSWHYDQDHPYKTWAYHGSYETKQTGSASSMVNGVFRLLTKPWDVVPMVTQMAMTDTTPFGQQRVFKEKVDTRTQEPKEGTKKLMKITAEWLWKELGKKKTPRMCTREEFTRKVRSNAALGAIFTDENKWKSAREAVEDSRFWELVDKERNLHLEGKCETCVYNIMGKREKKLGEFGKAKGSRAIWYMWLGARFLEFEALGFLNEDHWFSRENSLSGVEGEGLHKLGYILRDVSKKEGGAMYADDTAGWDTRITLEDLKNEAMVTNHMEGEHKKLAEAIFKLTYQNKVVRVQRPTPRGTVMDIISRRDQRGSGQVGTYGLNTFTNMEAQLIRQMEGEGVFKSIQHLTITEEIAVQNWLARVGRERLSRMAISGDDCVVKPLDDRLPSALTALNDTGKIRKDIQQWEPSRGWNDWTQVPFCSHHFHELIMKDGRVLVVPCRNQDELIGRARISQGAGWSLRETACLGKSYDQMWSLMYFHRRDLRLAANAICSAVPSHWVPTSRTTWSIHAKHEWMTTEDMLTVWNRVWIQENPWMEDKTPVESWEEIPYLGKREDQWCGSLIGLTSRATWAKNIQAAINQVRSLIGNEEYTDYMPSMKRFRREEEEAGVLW
Experiment: flavivirus cap methylation enzyme inhibition – biochemical, confirmation dose response, primary screen (AID 588689)
Type: functional
Activity calls are given as the source filed them. How the calls were made is not given here.

> print(dat)
                                   compound      readout.value
1  O=C(O)CSc1cc(NS(=O)(=O)c2ccc(Br)cc2)c2ccccc2c1O   7.66 µM (active)
2        COC1=CC(=O)c2c(ccc3ncnc(N)c23)C1=O   62.4 µM (active)
3  O=C1NN(c2ccccc2)C(=O)/C1=C/c1ccc(-c2cccc(C(=O)O)c2)o1   30.6 µM (active)
4  COc1ccc(OC)c(N2C(=O)NC(=O)/C(=C\c3ccc([N+](=O)[O-])s3)C2=O)c1   39.9 µM (active)
5  Cc1ccc(NC(=O)C2=C(c3ccccc3)S(=O)(=O)CCS2(=O)=O)cc1  > 100 µM (active)

Prompt line: Provide measured IC50 value, entry: CCCn1nc([N+](=O)[O-])c(C(C#N)c2nc3ccccc3o2)c(Cl)c1=O (stereo not given)
Response line: 34.7 µM (active)

Prompt line: Provide measured IC50 value, entry: "O=C1NN(c2ccc(Cl)c(Cl)c2)C(=O)/C1=C/c1ccc(-c2ccccc2C(=O)O)o1"
Response line: 7.41 µM (active)

Prompt line: Provide measured IC50 value, entry: "CC(C)CN(CC(C)C)c1ccc(C=C2C(=O)NC(=S)NC2=O)cc1[N+](=O)[O-]"
Response line: 15.9 µM (active)

Prompt line: Provide measured IC50 value, entry: "Oc1c(Cl)cccc1Cc1cc(Cl)cc(Cl)c1O"
Response line: 45.5 µM (active)

Prompt line: Provide measured IC50 value, entry: "O=C1/C(=C/c2cccc(F)c2)SC(=S)N1NS(=O)(=O)c1ccccc1"
Response line: 30.6 µM (active)

Prompt line: Provide measured IC50 value, entry: Cc1cc(C)c2nc(N3C(=O)C(O)=C(C(=O)c4ccco4)C3c3cccc(O)c3)sc2c1 (stereo not given)
Response line: 32.4 µM (active)

Prompt line: Provide measured IC50 value, entry: "Cc1ccc(C)c(S(=O)(=O)ON2C(=O)c3ccccc3C2=O)c1"
Response line: > 100 µM (active)

Prompt line: Provide measured IC50 value, entry: "Cc1c(N)cc(N)cc1C(=O)O"
Response line: > 100 µM (active)

Prompt line: Provide measured IC50 value, entry: "COc1ccc(N2C(=O)NC(=O)/C(=C\c3ccc([N+](=O)[O-])s3)C2=O)cc1"
Response line: 39.1 µM (active)

Prompt line: Provide measured IC50 value, entry: "O=S(=O)(O)c1cccc2cccc(Nc3ccccc3)c12"
Response line: > 100 µM (active)
